# test.system: Tyrosine-protein kinase JAK1 (Homo sapiens, UniProt P23458)
# Sequence (P23458 whole entry): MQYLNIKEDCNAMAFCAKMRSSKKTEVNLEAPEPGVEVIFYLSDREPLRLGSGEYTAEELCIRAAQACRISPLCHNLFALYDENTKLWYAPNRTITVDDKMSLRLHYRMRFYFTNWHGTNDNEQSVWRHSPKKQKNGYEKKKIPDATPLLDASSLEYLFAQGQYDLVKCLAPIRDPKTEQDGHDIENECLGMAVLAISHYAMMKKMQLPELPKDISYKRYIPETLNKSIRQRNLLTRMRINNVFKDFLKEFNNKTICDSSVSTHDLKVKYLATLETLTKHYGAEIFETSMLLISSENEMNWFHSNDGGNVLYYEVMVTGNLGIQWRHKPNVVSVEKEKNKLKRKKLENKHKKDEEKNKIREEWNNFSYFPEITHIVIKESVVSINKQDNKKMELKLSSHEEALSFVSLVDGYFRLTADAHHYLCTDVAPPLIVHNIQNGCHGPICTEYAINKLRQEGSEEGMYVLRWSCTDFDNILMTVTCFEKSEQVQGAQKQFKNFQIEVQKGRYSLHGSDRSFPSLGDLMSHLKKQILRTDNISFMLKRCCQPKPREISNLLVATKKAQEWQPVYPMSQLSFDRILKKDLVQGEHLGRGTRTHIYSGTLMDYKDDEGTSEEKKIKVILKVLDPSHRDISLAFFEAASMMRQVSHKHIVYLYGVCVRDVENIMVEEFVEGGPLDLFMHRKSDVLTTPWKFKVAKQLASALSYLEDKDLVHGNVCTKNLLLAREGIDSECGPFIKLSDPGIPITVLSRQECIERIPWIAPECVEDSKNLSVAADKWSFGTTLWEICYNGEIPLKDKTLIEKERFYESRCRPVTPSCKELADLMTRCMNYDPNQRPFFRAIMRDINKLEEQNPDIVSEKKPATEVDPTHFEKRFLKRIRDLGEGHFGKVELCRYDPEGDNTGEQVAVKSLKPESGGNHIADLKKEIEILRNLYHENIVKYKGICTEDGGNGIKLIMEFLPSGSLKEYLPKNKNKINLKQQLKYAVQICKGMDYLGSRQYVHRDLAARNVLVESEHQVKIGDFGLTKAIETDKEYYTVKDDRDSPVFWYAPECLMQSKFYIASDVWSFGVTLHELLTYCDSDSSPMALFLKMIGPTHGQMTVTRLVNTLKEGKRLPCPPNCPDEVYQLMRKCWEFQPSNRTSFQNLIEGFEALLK
# experiment: Inhibition of human recombinant JAK1 using Ulight-CAGAGAIETDKEYYTVKD as substrate by LANCE assay
quantity.measured: IC50
Don't forget the unit after the number, please.

Return IC50 measured with Tyrosine-protein kinase JAK1 (Homo sapiens, UniProt P23458) given this molecule: Clc1cccc(Nc2nc(Nc3cn[nH]c3)ncc2Cl)c1
3.4 nM

----------
# Test system: HEL
# experiment: Antiproliferative activity against HEL cells harboring JAK2 V617F mutant at 5 uM after 48 hrs by MTT assay
# Assay type: functional, Homo sapiens
quantity.measured: Activity

Fc1cnc(Nc2cn[nH]c2)nc1Nc1ccccc1 :: <50%
COc1ccc(Nc2nc(Nc3cn[nH]c3)ncc2F)cc1 :: <50%
Clc1ccccc1Nc1ccnc(Nc2cn[nH]c2)n1 :: <50%
Clc1ccc(Nc2nc(Nc3cn[nH]c3)nc3[nH]ccc23)cc1 :: >50%
COc1ccc(Nc2nc(Nc3cn[nH]c3)nc3ccccc23)cc1 :: <50%
COc1ccc(Nc2nc(Nc3cn[nH]c3)nc3[nH]ccc23)cc1 :: >50%

Value lookup for Activity; key = Clc1ccc(Nc2nc(Nc3cn[nH]c3)ncc2Cl)cc1
>50%

How about c1ccc(Nc2nc(Nc3cn[nH]c3)nc3[nH]ccc23)cc1 ?
>50%

How about COc1ccc(Nc2nc(Nc3cn[nH]c3)ncc2Cl)cc1 ?
>50%

----------
# Tested on: K562
# experiment: Antiproliferative activity against human K562 cells after 48 hrs by MTT assay
# Type: functional, cell-based
# measurement.parameters: K562, 48 h
quantity.measured: IC50

Reference set, count: 8
Clc1cnc(Nc2cn[nH]c2)nc1Nc1ccccc1 :: > 8300 nM
Clc1ccc(Nc2nc(Nc3cn[nH]c3)ncc2Cl)cc1 :: 1700 nM
Fc1cnc(Nc2cn[nH]c2)nc1Nc1ccc(Cl)cc1 :: 3790 nM
Clc1cccc(Nc2nc(Nc3cn[nH]c3)nc3ccccc23)c1 :: > 8300 nM
Fc1ccc(Nc2nc(Nc3cn[nH]c3)ncc2Cl)cc1 :: 1860 nM
Clc1ccccc1Nc1nc(Nc2cn[nH]c2)ncc1Cl :: 1290 nM
c1ccc(Nc2nc(Nc3cn[nH]c3)nc3[nH]ccc23)cc1 :: 370 nM
N#CC[C@H](C1CCCC1)n1cc(-c2ncnc3[nH]ccc23)cn1 [RUXOLITINIB] :: 10300 nM

Value lookup for IC50; key = COc1ccc(Nc2nc(Nc3cn[nH]c3)ncc2Cl)cc1
2080 nM

How about Clc1ccccc1CNc1nc(Nc2cn[nH]c2)nc2[nH]ccc12 ?
3720 nM

How about Clc1cccc(Nc2nc(Nc3cn[nH]c3)ncc2Cl)c1 ?
770 nM

----------
# test.system: Tyrosine-protein kinase JAK3 (Homo sapiens, UniProt P52333)
# Sequence (P52333 whole entry): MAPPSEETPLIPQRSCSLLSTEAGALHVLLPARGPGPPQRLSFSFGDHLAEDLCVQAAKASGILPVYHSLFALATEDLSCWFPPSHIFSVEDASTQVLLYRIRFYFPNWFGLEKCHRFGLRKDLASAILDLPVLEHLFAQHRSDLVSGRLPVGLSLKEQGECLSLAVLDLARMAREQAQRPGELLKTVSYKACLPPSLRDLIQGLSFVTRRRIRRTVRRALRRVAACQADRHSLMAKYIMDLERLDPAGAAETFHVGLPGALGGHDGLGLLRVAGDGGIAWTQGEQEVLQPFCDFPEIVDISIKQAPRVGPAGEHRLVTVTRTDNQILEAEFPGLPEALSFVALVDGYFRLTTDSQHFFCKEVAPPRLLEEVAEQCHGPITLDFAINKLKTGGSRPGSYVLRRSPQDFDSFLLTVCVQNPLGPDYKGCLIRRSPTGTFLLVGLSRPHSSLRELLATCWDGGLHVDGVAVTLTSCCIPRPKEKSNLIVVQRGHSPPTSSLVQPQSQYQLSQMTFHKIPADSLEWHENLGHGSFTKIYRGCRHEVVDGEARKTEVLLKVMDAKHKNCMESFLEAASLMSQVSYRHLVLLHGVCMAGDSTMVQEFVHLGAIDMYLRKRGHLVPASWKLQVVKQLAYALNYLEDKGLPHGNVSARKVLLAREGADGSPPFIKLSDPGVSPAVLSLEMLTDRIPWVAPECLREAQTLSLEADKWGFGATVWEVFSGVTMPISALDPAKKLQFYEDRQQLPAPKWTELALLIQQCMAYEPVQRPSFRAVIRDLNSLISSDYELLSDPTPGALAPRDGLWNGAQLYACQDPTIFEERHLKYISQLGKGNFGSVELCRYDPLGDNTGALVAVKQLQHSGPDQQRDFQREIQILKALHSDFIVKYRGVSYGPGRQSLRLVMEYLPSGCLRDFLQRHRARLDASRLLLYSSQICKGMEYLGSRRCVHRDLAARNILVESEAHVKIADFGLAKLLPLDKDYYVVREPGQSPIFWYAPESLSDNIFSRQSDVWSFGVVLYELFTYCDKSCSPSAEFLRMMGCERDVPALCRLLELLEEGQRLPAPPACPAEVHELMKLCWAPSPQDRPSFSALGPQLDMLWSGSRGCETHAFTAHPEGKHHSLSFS
# experiment: Inhibition of human recombinant JAK3 using Ulight-CAGAGAIETDKEYYTVKD as substrate by LANCE assay
quantity.measured: IC50 (nM)
Quick note: give the figure in nM, leave out the unit.

Value lookup for IC50; key = Clc1cccc(Nc2nc(Nc3cn[nH]c3)ncc2Cl)c1
3.5

----------
The molecules listed here are annotated with their Activity.
# Tested on: HEL
# experiment: Antiproliferative activity against HEL cells harboring JAK2 V617F mutant at 5 uM after 48 hrs by MTT assay
# Assay type: functional, Homo sapiens

Reference set, count: 4
Clc1ccccc1CNc1nc(Nc2cn[nH]c2)nc2ccccc12 :: <50%
N#Cc1ccccc1Nc1ccnc(Nc2cn[nH]c2)n1 :: <50%
c1ccc(Nc2nc(Nc3cn[nH]c3)nc3ccccc23)cc1 :: <50%
Clc1cccc(Nc2nc(Nc3cn[nH]c3)ncc2Cl)c1 :: >50%

Value lookup for Activity; key = Clc1cnc(Nc2cn[nH]c2)nc1Nc1ccccc1
>50%

How about Fc1cnc(Nc2cn[nH]c2)nc1Nc1ccc(Cl)cc1 ?
<50%

How about Clc1cccc(Nc2nc(Nc3cn[nH]c3)nc3ccccc23)c1 ?
<50%

How about C#Cc1cccc(Nc2nc(Nc3cn[nH]c3)nc3ccccc23)c1 ?
<50%

How about C#Cc1cccc(Nc2ccnc(Nc3cn[nH]c3)n2)c1 ?
<50%

How about Clc1ccccc1Nc1nc(Nc2cn[nH]c2)ncc1Cl ?
>50%

How about Fc1ccc(Nc2nc(Nc3cn[nH]c3)ncc2Cl)cc1 ?
>50%

How about Clc1ccc(Nc2ccnc(Nc3cn[nH]c3)n2)cc1 ?
<50%

How about Clc1ccccc1CNc1nc(Nc2cn[nH]c2)nc2[nH]ccc12 ?
>50%

How about Clc1ccc(Nc2nc(Nc3cn[nH]c3)nc3ccccc23)cc1 ?
<50%
